Where these numbers come from: patent EP4567031A1

# target: HPK1 (Homo sapiens)
# Sequence (Q92918 whole entry, species assumed): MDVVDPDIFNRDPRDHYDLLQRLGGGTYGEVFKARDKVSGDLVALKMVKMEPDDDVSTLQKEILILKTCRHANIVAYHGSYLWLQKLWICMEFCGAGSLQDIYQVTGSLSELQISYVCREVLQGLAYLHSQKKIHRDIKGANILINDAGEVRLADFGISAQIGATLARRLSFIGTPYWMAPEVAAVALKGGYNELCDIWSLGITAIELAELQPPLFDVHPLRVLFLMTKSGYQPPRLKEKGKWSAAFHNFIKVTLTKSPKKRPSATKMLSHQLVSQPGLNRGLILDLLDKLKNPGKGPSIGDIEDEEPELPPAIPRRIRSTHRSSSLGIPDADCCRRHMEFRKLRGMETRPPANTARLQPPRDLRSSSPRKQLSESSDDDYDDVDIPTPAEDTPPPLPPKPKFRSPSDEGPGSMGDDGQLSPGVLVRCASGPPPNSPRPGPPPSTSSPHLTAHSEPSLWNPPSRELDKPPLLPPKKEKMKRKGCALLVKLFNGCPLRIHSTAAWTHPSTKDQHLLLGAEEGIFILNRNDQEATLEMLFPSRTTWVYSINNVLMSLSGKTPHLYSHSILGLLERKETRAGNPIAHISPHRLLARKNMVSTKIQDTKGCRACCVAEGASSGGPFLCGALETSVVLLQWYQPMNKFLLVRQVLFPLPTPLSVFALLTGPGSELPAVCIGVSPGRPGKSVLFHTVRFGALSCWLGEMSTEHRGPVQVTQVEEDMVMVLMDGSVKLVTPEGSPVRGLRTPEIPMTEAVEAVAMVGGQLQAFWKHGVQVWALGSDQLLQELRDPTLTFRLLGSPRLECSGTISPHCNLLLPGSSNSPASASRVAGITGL
# assay-details: HPK1 HTRF kinase assay
# Format: biochemical
# condition-details: 1000 µM ATP; 50 nM HPK1; STK1 substrate; read-out: HPK1, IC50
pIC50: −log10 of the molar value.
# if value of pIC50 reaches 8, tag TRUE; if it stays below, tag FALSE

Reference set (3 entries):
line_notation=CC1(C)c2cc(N3CCOCC3)ccc2Nc2c1cc(-c1cnc3c(F)cccn13)c1c2C(=O)NC1 assigned_category=TRUE
line_notation=Cc1ccnn2c(-c3cc4c(c5c3CNC5=O)Nc3ccc(N5CCOCC5)cc3C4(C)C)cnc12 assigned_category=TRUE
line_notation=CN1CCn2c(-c3cc4c(c5c3CNC5=O)Nc3ccc(N5CCOCC5)cc3C4(C)C)cnc2C1 assigned_category=FALSE

Attention now shifts to the item below.
Hello, I need to know if `Cn1cccc(Nc2cc3c(c4c2CNC4=O)Nc2ccc(N4CCOCC4)cc2C3(C)C)c1=O` has measured pIC50 not below 8. Thanks!
TRUE

----------
# System: human Pan T cells
# assay-details: Human Pan T cell IL-2 ELISA
# Assay type: cell-based
# condition-details: Homo sapiens, T-cell, 48 h, Anti-CD3 and Anti-CD28, supernatant IL-2 ELISA, read-out: IL-2 release, EC50
recorded-metric: pEC50
Please keep in mind that pEC50 is minus log10 of the molar concentration; only the number is needed.

Before answering, review these 5 worked examples.
molecule=CC1(C)c2cc(N3CCC(O)CC3)ccc2Nc2c1cc(-c1cnn3cccnc13)c1c2C(=O)NC1 recorded_metric=pEC50 obs_value=8.34
molecule="Cn1ccc(-c2cc3c(c4c2CNC4=O)Nc2ccc(N4CCOC(C(C)(C)O)C4)cc2C3(C)C)cc1=O (stereo not shown)" recorded_metric=pEC50 obs_value=7.91
molecule=COc1cccc2c(-c3cc4c(c5c3CNC5=O)Nc3cnc(N5CCOCC5)cc3C4(C)C)cnn12 recorded_metric=pEC50 obs_value=8.75
molecule=CN1CCN(Cc2ccc3c(c2)C(C)(C)c2cc(-c4cnn5cccnc45)c4c(c2N3)C(=O)NC4)CC1 recorded_metric=pEC50 obs_value=7.72
molecule=CC1(C)c2cc(N3CCOCC3)ccc2Nc2c1cc(-c1cnn3ccncc13)c1c2C(=O)NC1 recorded_metric=pEC50 obs_value=7.84

Sure, the documented pEC50 for `CC1(C)c2cc(NC(=O)COCCO)ccc2Nc2c1cc(-c1cnn3cccnc13)c1c2C(=O)NC1` is 7.17

Sure, the documented pEC50 for CC1CCCn2c(-c3cc4c(c5c3CNC5=O)Nc3ccc(N5CCOC(C(C)(C)O)C5)cc3C4(C)C)cnc21 (stereo not shown) is 7.98

----------
# Tested on: human Pan T cells
# assay-details: Human Pan T cell IL-2 ELISA
# Assay type: cell-based
# condition-details: Homo sapiens, T-cell, 48 h, Anti-CD3 and Anti-CD28, supernatant IL-2 ELISA, read-out: IL-2 release, EC50
recorded-metric: EC50 (nM)
Return type: number; implicit unit nM.

Before answering, review these 5 worked examples.
molecule="CC1(C)c2cc(N3CCOC(C(C)(C)O)C3)ccc2Nc2c1cc(-c1cnc3cc(C(F)F)ccn13)c1c2C(=O)NC1 (stereo not shown) [Example 113]" obs_value=14
molecule="COc1nccn2c(-c3cc4c(c5c3CNC5=O)Nc3ccc(N5CCOCC5C)cc3C4(C)C)cnc12 (single isomer, unassigned) [Example 244]" obs_value=9.8
molecule="CC1(C)c2cc(-c3cnc4cc(F)ccn34)c3c(c2Nc2ccc(N4CCOC(C(C)(C)O)C4)c(F)c21)C(=O)NC3 (stereo not shown) [Example 124]" obs_value=15.7
molecule="CC1CCn2c(-c3cc4c(c5c3CNC5=O)Nc3ccc(N5CCOCC5)cc3C4(C)C)cnc2C1 (stereo not shown) [Example 65]" obs_value=28
molecule="CC1(C)c2cc(CN3CCNCC3)ccc2Nc2c1cc(-c1cnn3cccnc13)c1c2C(=O)NC1 [Example 57]" obs_value=27.1

Sure, the documented EC50 for Cn1c(-c2cc3c(c4c2CNC4=O)Nc2ccc(N4CCOCC4)cc2C3(C)C)cnc1C1CCCO1 (single isomer, unassigned) [Example 190] is 53
